Tested on: Aspergillus fumigatus ATCC 204305
TEST SUMMARY: Antifungal microdilution broth (EUCAST), AF
Assay type: cell-based
TEST CONDITIONS: Aspergillus fumigatus, ATCC204305; read after 24 h; read-out: AF MIC
MEASUREMENT LABEL: MIC

MOLECULE: CCCCCC(=O)Nc1nccnc1C(N)=O
TEST RESULT: > 500 µM
//
MOLECULE: Cc1ccc(C(=O)Nc2nccnc2C(N)=O)cc1
TEST RESULT: > 500 µM
//
MOLECULE: NC(=O)c1nccnc1NC(=O)c1ccccc1C(F)(F)F
TEST RESULT: > 500 µM
//
MOLECULE: COC(=O)c1nccnc1NC(=O)c1cccc(Cl)c1 [Compound 14e]
TEST RESULT: > 500 µM
//
MOLECULE: NC(=O)c1nccnc1NC(=O)c1ccccc1Br
TEST RESULT: > 500 µM
